System Name: ΔF508-CFTR (Homo sapiens, UniProt P13569, DEL508-508)
Construct: host or cells: CFBE41o-, doxycycline-inducible
Sequence (P13569 with tags, fused parts or gaps DEL508-508): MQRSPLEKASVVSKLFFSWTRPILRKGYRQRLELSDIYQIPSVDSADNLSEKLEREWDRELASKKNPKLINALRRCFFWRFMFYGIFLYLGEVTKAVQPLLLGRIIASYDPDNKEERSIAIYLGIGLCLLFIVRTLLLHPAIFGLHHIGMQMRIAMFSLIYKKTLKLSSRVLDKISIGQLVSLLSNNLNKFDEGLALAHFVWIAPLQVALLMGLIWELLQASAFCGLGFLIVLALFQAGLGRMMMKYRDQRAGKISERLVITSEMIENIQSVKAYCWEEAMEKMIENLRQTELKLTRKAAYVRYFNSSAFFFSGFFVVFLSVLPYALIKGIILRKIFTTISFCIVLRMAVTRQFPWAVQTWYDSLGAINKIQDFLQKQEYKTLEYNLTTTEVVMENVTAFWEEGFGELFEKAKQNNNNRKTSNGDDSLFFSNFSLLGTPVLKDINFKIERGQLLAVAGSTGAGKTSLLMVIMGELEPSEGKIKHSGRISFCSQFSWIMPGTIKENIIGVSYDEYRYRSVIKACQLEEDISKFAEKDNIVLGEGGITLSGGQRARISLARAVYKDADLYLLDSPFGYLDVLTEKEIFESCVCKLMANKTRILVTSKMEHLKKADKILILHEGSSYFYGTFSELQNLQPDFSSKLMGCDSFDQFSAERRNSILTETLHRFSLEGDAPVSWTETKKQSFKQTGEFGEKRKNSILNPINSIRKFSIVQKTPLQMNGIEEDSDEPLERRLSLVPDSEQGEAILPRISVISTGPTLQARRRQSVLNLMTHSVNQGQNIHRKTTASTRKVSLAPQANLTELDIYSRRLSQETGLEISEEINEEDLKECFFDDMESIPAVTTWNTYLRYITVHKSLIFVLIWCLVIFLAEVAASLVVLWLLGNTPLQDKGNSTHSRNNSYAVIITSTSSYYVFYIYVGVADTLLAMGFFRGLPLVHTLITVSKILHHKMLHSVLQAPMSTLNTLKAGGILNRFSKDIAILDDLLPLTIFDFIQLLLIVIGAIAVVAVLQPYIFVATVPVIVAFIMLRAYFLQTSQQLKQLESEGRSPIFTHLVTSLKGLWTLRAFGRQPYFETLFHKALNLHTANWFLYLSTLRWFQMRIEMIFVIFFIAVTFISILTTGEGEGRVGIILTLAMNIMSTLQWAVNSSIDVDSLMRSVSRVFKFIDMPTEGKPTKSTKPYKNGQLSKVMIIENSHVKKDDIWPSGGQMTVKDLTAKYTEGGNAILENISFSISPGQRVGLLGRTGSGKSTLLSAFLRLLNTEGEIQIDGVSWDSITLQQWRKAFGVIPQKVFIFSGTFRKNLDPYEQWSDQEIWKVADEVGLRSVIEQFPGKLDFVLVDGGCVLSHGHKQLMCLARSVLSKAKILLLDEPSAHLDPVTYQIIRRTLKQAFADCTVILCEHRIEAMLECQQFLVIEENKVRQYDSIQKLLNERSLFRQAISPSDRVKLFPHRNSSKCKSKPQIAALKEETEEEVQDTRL
Experiment Notes: CFTR cell surface levels using HRP-tagged ΔF508-CFTR expressing CFBE cells, intrinsic corrector capacity
Assay type: cell-based
Design: concentration or dose not given beside the values
Assay Setup: HRP-tagged ΔF508-CFTR expressing CFBE41o- cells; compound alone (intrinsic corrector capacity); 20 hours at 33° C.
Rule: measured % Activation below 200% gets 1; anything equal to or greater than 200% gets -1.

Molecule: COCC1CCN(c2cc(C(=O)NS(C)(=O)=O)nc3c2c(C2CCC2)nn3-c2ccc(F)cc2)CC1
Group Label: -1

Molecule: COCC1CCN(c2cc(C(=O)NS(=O)(=O)CCC(=O)N(C)C)nc3c2c(C2CCC2)nn3-c2ccccc2)CC1
Group Label: -1

Molecule: COCC1CCN(c2cc(C(=O)NS(=O)(=O)N(C)C)nc3c2c(C2CCC2)nn3-c2ccccc2)CC1
Group Label: -1

Molecule: CC(C)c1nn(-c2cccc(OC(F)(F)F)c2)c2nc(C(=O)NS(C)(=O)=O)cc(-c3ccc(N4CCOCC4)cc3)c12
Group Label: -1

Molecule: COCC1CCN(c2cc(C(=O)NS(C)(=O)=O)nc3c2c(C(C)C)nn3-c2cc(C)nc(C)c2)CC1
Group Label: 1

Molecule: CC(C)Oc1nn(C2CCCCC2)c2nc(C(=O)NS(=O)(=O)N(C)C)cc(-c3ccc(C(=O)N4CCC(N(C)C)CC4)cc3)c12
Group Label: 1

Molecule: Cc1nn(-c2ccc(OC(F)(F)F)cc2)c2nc(C(=O)NS(C)(=O)=O)cc(-c3ccc(N4CCOCC4)cc3)c12
Group Label: 1

Molecule: CC(C)c1nn(-c2ccc(F)cc2)c2nc(C(=O)NS(C)(=O)=O)cc(OCC3COCCN3C(C)C)c12 (centres unmarked)
Group Label: 1

Molecule: CN(C(=O)c1cc(N2CCC(N3CCOCC3)CC2)c2c(C3CCC3)nn(-c3ccc(F)cc3)c2n1)S(C)(=O)=O
Group Label: 1

Molecule: CCOCC1(F)CCN(c2cc(C(=O)NS(C)(=O)=O)nc3c2c(C2CCC2)nn3-c2ccccc2)CC1
Group Label: 1

Molecule: CCCCOC1CCN(c2cc(C(=O)NS(C)(=O)=O)nc3c2c(C(C)C)nn3-c2ccc(F)cc2)CC1
Group Label: -1

Molecule: CN(C)S(=O)(=O)NC(=O)c1cc(CN2CCOCC2)c2c(C3CCC3)nn(-c3ccc(F)cc3)c2n1
Group Label: 1
